tested on: E. coli TESEC Mtb Asd; test: growth (OD600 after 10 h); higher = more growth (less inhibition); conditions: arabinose induction (level): High; compound 0.1 mM; raw OD600 reference: median of DMSO wells 0.331, cell-free background 0.041
Structures can show the parent of a compound that is named as a salt.
Class membership depends on growth alone; the intervals are lower bin = under 0.2, middle bin = from 0.2 up to 0.3, upper bin = 0.3 and over

Take a look at these entries with their results.
Cc1c(C)c2c(c(C)c1O)CCC(C)(COc1ccc(CC3SC(=O)NC3=O)cc1)O2 (configuration not stated)    lower bin
Cc1cc(C)nc(NS(=O)(=O)c2ccc(N)cc2)n1 [Sulfamethazine sodium salt]    upper bin
O=c1[nH]c(=O)n(C2CCCO2)cc1F (configuration not stated)    upper bin
CC(C)(Oc1ccc(Cl)cc1)C(=O)O    upper bin

Please classify: CCn1cc(C(=O)O)c(=O)c2ccc(C)nc21 [Nalidixic acid sodium salt]
lower bin

Please classify: `O=C(O)c1ccccc1Nc1cccc(C(F)(F)F)c1`
lower bin

Please classify: CCN(CC)C(=O)C1(c2ccccc2)CC1CN (configuration not stated) [Milnacipran hydrochloride]
middle bin

Please classify: `CC(C)(O)c1ccccc1CC[C@@H](SCC1(CC(=O)O)CC1)c1cccc(/C=C/c2ccc3ccc(Cl)cc3n2)c1`
middle bin

====

system: E. coli TESEC Mtb Alr; test: growth (OD600 after 10 h); higher = more growth (less inhibition); conditions: arabinose 100000 nM; compound 0.1 mM; raw OD600 reference: median of DMSO wells 0.201, cell-free background 0.041
Where a name gives a salt, the structure may show the parent alone.
measure_name: growth
Answers are plain numbers.

# count of solved cases: 6
CC(=O)Oc1ccccc1C(=O)Oc1ccccc1C(=O)O    0.203
CC(C)N1CCN(c2ccc(OCC3COC(Cn4cncn4)(c4ccc(Cl)cc4Cl)O3)cc2)CC1 (configuration not stated)    0.23
NCCc1cc[nH]n1 [Betazole hydrochloride]    0.2
O=C(O)Cc1ccccc1Nc1c(Cl)cccc1Cl [Diclofenac sodium]    0.149
CC(C)C[C@H](NC(=O)[C@@H](O)[C@H](N)Cc1ccccc1)C(=O)O    0.215
CO[C@H]1C[C@H](O[C@H]2[C@H](C)[C@@H](O[C@@H]3O[C@H](C)C[C@H](N(C)C)[C@H]3OC(C)=O)[C@@H](C)C[C@@]3(CO3)C(=O)[C@H](C)[C@@H](OC(C)=O)[C@@H](C)[C@@H](C)OC(=O)[C@@H]2C)O[C@@H](C)[C@@H]1OC(C)=O    0.0702

Switching to the query record.
Data point: CCOc1ccc2nc(S(N)(=O)=O)sc2c1 [Ethoxzolamide] ; growth = 0.177

====

system: E. coli TESEC Mtb Alr; test: growth (OD600 after 10 h); higher = more growth (less inhibition); conditions: arabinose 100000 nM; compound 0.1 mM; raw OD600 reference: median of DMSO wells 0.201, cell-free background 0.041
Where a name gives a salt, the structure may show the parent alone.
measure_name: growth
Give bare numbers.

# count of solved cases: 3
Cc1noc(NS(=O)(=O)c2ccc(N)cc2)c1C    0.213
COc1ccc([C@@H]2Sc3ccccc3N(CCN(C)C)C(=O)[C@@H]2OC(C)=O)cc1 [Diltiazem hydrochloride]    0.175
CC(=O)OCC1=C(C(=O)O)N2C(=O)[C@@H](NC(=O)Cc3cccs3)[C@H]2SC1 [Cephalothin sodium salt]    0.283

Dear colleague, could you please provide growth for the molecules listed below?
1. CN(C)CCCN1c2ccccc2Sc2ccccc21 [Promazine hydrochloride]
2. COCCc1ccc(OCC(O)CNC(C)C)cc1 (racemic) [Metoprolol-(+,-) (+)-tartrate salt]

[0.192, 0.203]

Where do the numbers come from? From the supplement of paper PMC9262897.
